As shown below, each of these compounds has a reported melting point value.

For orientation, consider the following solved cases.
compound=C[C@@H]1Cc2cc3c(cc2C(c2ccc(N)cc2)=NN1c1nccs1)OCO3 value_observed="125 to 130 °C"
compound="CC1Cc2cc3c(cc2C(c2ccc(N)cc2)=NN1c1nnc(C2CC2)s1)OCO3 (racemic)" value_observed="145 to 148 °C"
compound="CC1Cc2cc3c(cc2C(c2ccc(N)cc2)=NN1c1nncs1)OCO3 (racemic) (hydrate or solvate)" value_observed="192 to 194 °C"
compound="CC1Cc2ccc(Cl)cc2C(c2ccc(N)cc2)=NN1C1=NC(=O)CS1 (racemic)" value_observed="226 to 228 °C"
compound=C/C=C/c1nnc(N2N=C(c3ccc([N+](=O)[O-])c(C)c3)c3cc4c(cc3C[C@H]2C)OCO4)s1 value_observed="232 to 237 °C"

// query Name the recorded melting point of the item Nc1ccc(C2=NN(c3nccs3)CCc3cc4c(cc32)OCO4)cc1 in your answer.
// result 200 to 204 °C

// query Kindly indicate its recorded melting point. Item: CC1Cc2cc3c(cc2C(c2ccc(N)cc2)=NN1C1N=CNN1)OCO3 (racemic)
// result 178 to 181 °C

// query Annotate the compound Cc1nc(N2N=C(c3ccc(N)cc3)c3cc4c(cc3CC2C)OCO4)n(C)n1 (racemic) with its measured melting point.
// result 185 to 187 °C

// query Look up and report measured melting point for this entry: CC(=O)Nc1ccc(C2=NN(c3ccc(Cl)nn3)C(C)Cc3cc4c(cc32)OCO4)cc1 (racemic)
// result 164 to 170 °C

// query For the compound CCCCCCc1nnc(N2N=C(c3ccc(N)c(C)c3)c3cc4c(cc3C[C@H]2C)OCO4)s1 , report melting point.
// result 180 to 181 °C

// query Specify measured melting point for C[C@@H]1Cc2cc3c(cc2C(c2ccc(N)cc2)=NN1c1nncs1)OCO3 .
// result 219 to 220 °C

// query Look up melting point of CCCCCCc1nnc(N2N=C(c3ccc([N+](=O)[O-])c(C)c3)c3cc4c(cc3C[C@H]2C)OCO4)s1 and report it.
// result 217 to 224 °C

// query Using the record for CC(=O)Nc1ccc(C2=NN(c3ncccn3)C(C)Cc3cc4c(cc32)OCO4)cc1 (racemic) , state its measured melting point.
// result 162 to 163 °C

// query Answer with the recorded melting point for the compound listed here: Cc1nnc(N2N=C(c3ccc(N)cc3)c3cc(Cl)ccc3CC2C)s1 (racemic)
// result 131 to 133 °C

// query # return recorded melting point for entry CC(=O)Nc1ccc(C2=NN(C3=NCCS3)C(C)Cc3cc4c(cc32)OCO4)cc1 (racemic)
// result 211 to 213 °C

// query Tell me melting point reported for C[C@@H]1Cc2cc3c(cc2C(c2ccc(N)cc2)=NN1C1=NCCS1)OCO3
// result 148 to 150 °C

----------
# log10 ED50 per record follows
Tested on: CD1 mice
protocol summary: Muscle relaxant activity, rotarod test
Type: in vivo
test settings: Mus musculus, ip
The common logarithm of ED50 in mg/kg is what is listed.

Solved cases below.
compound=C[C@@H]1Cc2cc3c(cc2C(c2ccc(N)cc2)=NN1c1nncs1)OCO3 assay_system="CD1 mice" property_label="log10 ED50" value_observed=0.15
compound=C[C@@H]1Cc2cc3c(cc2C(c2ccc(N)cc2)=NN1c1nccs1)OCO3 assay_system="CD1 mice" property_label="log10 ED50" value_observed=0.73
compound="CC(=O)N1N=C(c2ccc(N)cc2)c2cc3c(cc2C[C@H]1C)OCO3 [GYKI 53773, reference compound]" assay_system="CD1 mice" property_label="log10 ED50" value_observed=0.36
compound=CCCc1nnc(N2N=C(c3ccc(N)c(C)c3)c3cc4c(cc3C[C@H]2C)OCO4)s1 assay_system="CD1 mice" property_label="log10 ED50" value_observed=-0.07
compound=CCc1nnc(N2N=C(c3ccc(N)c(C)c3)c3cc4c(cc3C[C@H]2C)OCO4)s1 assay_system="CD1 mice" property_label="log10 ED50" value_observed=-0.04
compound=Cc1nnc(N2N=C(c3ccc(N)c(C)c3)c3cc4c(cc3C[C@H]2C)OCO4)s1 assay_system="CD1 mice" property_label="log10 ED50" value_observed=-0.29
compound=Cc1cc(C2=NN(c3nncs3)[C@H](C)Cc3cc4c(cc32)OCO4)ccc1N assay_system="CD1 mice" property_label="log10 ED50" value_observed=-0.10
compound="CC1=NN=C(c2ccc(N)cc2)c2cc3c(cc2C1)OCO3 [GYKI 52466, reference compound]" assay_system="CD1 mice" property_label="log10 ED50" value_observed=1.40
compound=Cc1nnc(N2N=C(c3ccc(N)cc3)c3cc4c(cc3C[C@H]2C)OCO4)s1 assay_system="CD1 mice" property_label="log10 ED50" value_observed=-0.10

Kindly review the next compound as well.
// query Check the records and state log10 ED50 for CCc1nnc(N2N=C(c3ccc(N)cc3)c3cc4c(cc3C[C@H]2C)OCO4)s1
// result 0.23
